target: T1, human MSLN-hFc recombinant protein (human, UniProt Q13421 296-580); test: SPR (Biacore 8K), MSLN-hFc captured, antibody injected
T1 construct: Captured by an anti-human IgG antibody on the chip; also called human MSLN protein; Acro MSN-H5253
T1 sequence (Q13421 other isoform, or with tags, fused parts or gaps): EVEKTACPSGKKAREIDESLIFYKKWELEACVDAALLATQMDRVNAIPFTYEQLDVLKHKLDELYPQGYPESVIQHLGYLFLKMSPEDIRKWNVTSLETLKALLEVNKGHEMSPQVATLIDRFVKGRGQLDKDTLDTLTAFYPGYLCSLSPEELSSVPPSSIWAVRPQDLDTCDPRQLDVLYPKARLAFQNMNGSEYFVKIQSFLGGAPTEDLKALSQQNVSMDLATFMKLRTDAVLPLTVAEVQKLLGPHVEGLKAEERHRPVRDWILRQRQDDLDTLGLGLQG
In this section we review reported koff values for a set of binders.
Return type: number; implicit unit s⁻¹.

See these solved cases before continuing.
F2.23.12-H5 (scFv, not shown: small tags and cut ends, also called S009-F2.23.12 humanized antibody VH2 + VL1) scFv: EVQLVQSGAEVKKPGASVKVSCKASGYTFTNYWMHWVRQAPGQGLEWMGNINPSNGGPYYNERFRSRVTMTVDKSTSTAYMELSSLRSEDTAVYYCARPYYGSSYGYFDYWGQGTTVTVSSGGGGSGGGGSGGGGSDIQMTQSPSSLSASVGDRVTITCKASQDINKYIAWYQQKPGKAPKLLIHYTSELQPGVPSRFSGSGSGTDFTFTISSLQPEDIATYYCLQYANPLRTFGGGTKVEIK ... 0.000473
F7.44.20-H9 (scFv, not shown: small tags and cut ends, also called S009-F7.44.20 humanized antibody VH2 + VL1) scFv: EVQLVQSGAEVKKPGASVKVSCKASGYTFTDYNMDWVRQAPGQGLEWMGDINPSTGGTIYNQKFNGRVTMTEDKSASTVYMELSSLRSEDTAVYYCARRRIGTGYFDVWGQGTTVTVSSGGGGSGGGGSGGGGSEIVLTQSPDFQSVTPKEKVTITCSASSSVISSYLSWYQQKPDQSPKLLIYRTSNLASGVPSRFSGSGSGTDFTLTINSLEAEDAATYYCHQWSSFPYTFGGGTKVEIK ... 0.000208
F7.44.20-H16 (scFv, not shown: small tags and cut ends, also called S009-F7.44.20 humanized antibody VH2a + VL4) scFv: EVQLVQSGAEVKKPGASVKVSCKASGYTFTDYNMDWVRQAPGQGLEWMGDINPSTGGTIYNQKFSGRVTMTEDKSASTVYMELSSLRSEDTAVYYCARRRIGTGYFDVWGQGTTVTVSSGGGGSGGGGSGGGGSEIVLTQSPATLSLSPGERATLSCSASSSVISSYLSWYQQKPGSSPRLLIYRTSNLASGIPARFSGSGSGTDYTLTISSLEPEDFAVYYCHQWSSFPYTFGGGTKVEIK ... 0.000679

Moving on to another binder below.
Could you share which koff value was measured for F2.23.12-H13 (scFv, not shown: small tags and cut ends, also called S009-F2.23.12 humanized antibody VH4 + VL1) scFv: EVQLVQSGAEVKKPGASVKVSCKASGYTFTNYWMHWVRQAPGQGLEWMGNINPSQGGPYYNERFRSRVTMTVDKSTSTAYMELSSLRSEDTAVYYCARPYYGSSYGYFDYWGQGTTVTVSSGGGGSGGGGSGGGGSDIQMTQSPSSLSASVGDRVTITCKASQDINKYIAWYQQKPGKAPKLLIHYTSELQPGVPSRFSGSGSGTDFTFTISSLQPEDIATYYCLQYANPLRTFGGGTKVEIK ?
0.000482
